Value source: patent US10213415B2

target_desc: mu opioid receptor (Rattus norvegicus, UniProt P33535)
Construct: from tissue; host or cells: forebrain of male Wistar rats
Sequence (P33535 whole entry): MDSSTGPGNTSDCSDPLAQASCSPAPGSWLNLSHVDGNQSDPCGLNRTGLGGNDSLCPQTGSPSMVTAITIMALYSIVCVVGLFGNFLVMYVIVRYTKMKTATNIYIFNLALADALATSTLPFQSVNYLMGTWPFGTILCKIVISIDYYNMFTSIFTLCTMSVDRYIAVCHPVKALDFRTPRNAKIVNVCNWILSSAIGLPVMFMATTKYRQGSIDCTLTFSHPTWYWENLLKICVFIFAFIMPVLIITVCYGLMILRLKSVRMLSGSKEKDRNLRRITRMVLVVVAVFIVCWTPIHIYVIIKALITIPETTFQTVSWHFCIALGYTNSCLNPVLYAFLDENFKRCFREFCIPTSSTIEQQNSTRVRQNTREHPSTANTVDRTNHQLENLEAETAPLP
protocol_description: Rat Brain Mu Opioid Receptor Binding Assay (and Version 2a, [3H]DAMGO)
condition_set: rat forebrain membranes, margin of error 10-20%, read-out: r Ki μ
Known Ki of a selection of compounds
measured_quantity: Ki (nM)

>>> print(df.to_string())
                                    compound  endpoint_value
 0  Cc1cc(O)cc(C)c1C[C@H](N)C(=O)N(C)[C@@H](C)c1nc(Cc2ccccc2)c[nH]1            0.14
 1  C[C@H](c1nc(-c2ccccc2)c[nH]1)N(Cc1ccccc1)C(=O)[C@@H](N)Cc1ccc(O)cc1            0.36
 2  Cc1cc(C(N)=O)cc(C)c1C[C@H](N)C(=O)N(Cc1ccc(C(=O)O)o1)[C@@H](C)c1nc(-c2ccccc2)c[nH]1            7.08
 3  COc1ccc(CN(C(=O)[C@@H](N)Cc2ccc(O)cc2)[C@@H](C)c2nc(-c3ccc(Cl)cc3)c(C)[nH]2)cc1C(=O)O             646
 4  CCN(C(=O)[C@@H](N)Cc1c(C)cc(O)cc1C)[C@H](C)c1nc(-c2ccccc2)c[nH]1            1.08
 5  COC(=O)c1ccc(CN(C(=O)[C@@H](N)Cc2c(C)cc(O)cc2C)[C@@H](C)c2nc(-c3ccccc3)c[nH]2)o1            0.05
 6  CCN(C(=O)[C@@H](N)Cc1ccc(O)cc1)[C@@H](C)c1nc(-c2ccccc2)c[nH]1            0.43
 7  CC(C)[C@@H](c1nc(-c2ccccc2)c[nH]1)N(C)C(=O)[C@@H](N)Cc1ccc(O)cc1             141
 8  COc1ccc(CN(C(=O)[C@@H](N)Cc2ccc(O)cc2)[C@@H](C)c2nc(-c3ccccc3)c[nH]2)cc1C(=O)O            0.79
 9  COc1ccc(CN(C(=O)[C@@H](N)Cc2c(C)cc(O)cc2C)[C@@H](C)c2nc(-c3ccccc3)c[nH]2)cc1C(=O)O            0.24
10  COc1ccc(CN(C(=O)[C@@H](N)Cc2c(C)cc(C(N)=O)cc2C)[C@@H](C)c2nc(-c3ccccc3)c[nH]2)cc1C(N)=O            0.18
11  C[C@@H](c1nc(-c2ccccc2)c[nH]1)N(C)C(=O)[C@@H](N)Cc1ccc(C(N)=O)cc1             5.9
12  CC(C)C[C@@H](c1nc(-c2ccccc2)c[nH]1)N(C)C(=O)[C@@H](N)Cc1cccc(C(N)=O)c1            5320
13  CCN(C(=O)[C@@H](N)Cc1c(C)cc(C(N)=O)cc1C)[C@@H](C)c1nc(-c2ccccc2)c[nH]1             0.9
14  C[C@@H](c1nc(-c2ccccc2)c[nH]1)N(C)C(=O)[C@@H](N)Cc1ccc(O)cc1             5.9
15  Cc1cc(C(N)=O)cc(C)c1C[C@H](N)C(=O)N(Cc1nc(-c2ccccc2)c[nH]1)C(C)C             0.6
16  COc1ccc(CN(C(=O)[C@@H](N)Cc2c(C)cc(C(N)=O)cc2C)[C@@H](C)c2nc(-c3ccc(Br)cc3)c[nH]2)cc1C(=O)O            0.47
17  COc1ccc(CN(C(=O)[C@@H](N)Cc2c(C)cc(C(N)=O)cc2C)[C@@H](C)c2nc(-c3ccccc3Br)c[nH]2)cc1C(=O)O            0.43
18  COc1ccc(CN(C(=O)[C@@H](N)Cc2c(C)cc(C(N)=O)cc2C)[C@@H](C)c2nc(-c3ccccc3C(=O)O)c[nH]2)cc1OC              25
19  C[C@@H](NC(=O)[C@@H](N)Cc1ccc(O)cc1)c1nc(-c2ccccc2)c[nH]1             103
20  COC(=O)c1cc(CN(C(=O)[C@@H](N)Cc2ccc(C(N)=O)cc2)[C@H](C)c2nc(-c3ccccc3)c[nH]2)ccc1OC             399
21  Cc1cc(O)cc(C)c1C[C@H](N)C(=O)N[C@@H](Cc1cccc(C#N)c1)c1nc(-c2ccccc2)c[nH]1            45.7
22  Cc1cc(O)cc(C)c1C[C@H](N)C(=O)N(Cc1ccccc1)[C@@H](C)c1nc(-c2ccccc2)c[nH]1            0.03
23  CCNC(=O)c1cc(C)c(C[C@H](N)C(=O)N(C)[C@H](C)c2nc(-c3ccccc3)c[nH]2)c(C)c1               7
24  COc1ccc(CN(Cc2nc(-c3ccccc3)c[nH]2)C(=O)[C@@H](N)Cc2ccc(C(N)=O)cc2)cc1C(=O)O            1.19
25  Cc1cc(C(N)=O)cc(C)c1C[C@H](N)C(=O)N(Cc1ccccc1)[C@@H](C)c1nc(-c2ccccc2)c[nH]1            0.26
